Header: IC50 / Aurora kinase B (Homo sapiens, UniProt Q96GD4) / multiple publications
QUANTITY: IC50 (nM)

# ITEM SMILES, IC50 / nM
measured = [
    ("NC(=O)[C@@H]1[C@H](Nc2nc(Nc3cnn(C[C@H]4CCCN4)c3)ncc2Cl)[C@H]2C=C[C@@H]1C2", 15),
    ("Cn1cc(Nc2ncc3cnn([C@@H]4C[C@H]5C[C@H]5C4)c3n2)cc1C(=O)N1CCC[C@@H]1CN1CCOCC1", 4),
]

P: Cc1cc(Nc2ncc(C)c(N3CCN(CC#N)CC3)n2)sn1
Q: CCOC(=O)c1cnc2ccc(C)cc2c1Nc1cccc(S(N)(=O)=O)c1
R: Cc1cn2c(-c3cn[nH]c3)cnc2c(Nc2ccc(C(=O)N3CCNCC3)c(F)c2)n1
S: NC(=O)[C@@H]1[C@H](Nc2nc(Nc3cnn(CCO)c3)ncc2Cl)[C@H]2C=C[C@@H]1C2
T: O=C(Nc1ccccc1)Nc1ccc(-c2nn(CC(=O)N3CCOCC3)cc2-c2ccnc3[nH]ccc23)cc1
Data request: Put these in order: smallest IC50 first, largest last. Reply with the labels, ordered as the question asks.
Data returned: P, S, T, R, Q
